Target: Acetylcholinesterase (Homo sapiens) (UniProt P22303)
Sequence (P22303 whole entry, looked up): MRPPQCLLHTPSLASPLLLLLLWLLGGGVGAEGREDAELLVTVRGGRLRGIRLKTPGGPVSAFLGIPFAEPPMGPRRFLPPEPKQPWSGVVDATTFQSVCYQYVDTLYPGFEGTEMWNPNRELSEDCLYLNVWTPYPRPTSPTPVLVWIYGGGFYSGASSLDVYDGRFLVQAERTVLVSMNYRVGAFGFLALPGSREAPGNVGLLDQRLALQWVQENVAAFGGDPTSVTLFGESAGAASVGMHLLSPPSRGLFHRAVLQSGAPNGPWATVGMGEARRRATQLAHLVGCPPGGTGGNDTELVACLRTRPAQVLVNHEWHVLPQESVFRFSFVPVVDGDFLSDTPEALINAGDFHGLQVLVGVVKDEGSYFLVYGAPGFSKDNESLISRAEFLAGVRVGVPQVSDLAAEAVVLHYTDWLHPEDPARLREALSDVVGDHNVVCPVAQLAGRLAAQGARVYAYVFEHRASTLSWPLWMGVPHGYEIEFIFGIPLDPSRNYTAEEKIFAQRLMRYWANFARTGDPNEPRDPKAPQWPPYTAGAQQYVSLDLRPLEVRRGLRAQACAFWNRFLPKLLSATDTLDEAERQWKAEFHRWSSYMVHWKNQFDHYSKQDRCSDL
Experiment: Acetylcholinesterase (AChE) small molecule antagonists: enzyme-based qHTS assay (AID 1347397); further: nearly all actives have a fitted effect of over 55% in size
Settings: AChE enzyme activity inhibition; series mostly up to 115 µM
The source made the active and inactive calls. The call rests on the fitted dose curve.
Measurement Name: outcome

Please review the entries below; each comes with its answer.
So what's the measured outcome for this one? O=C(O)C(F)(F)C(F)(F)C(F)(F)C(F)(F)C(F)(F)C(F)(F)C(F)(F)C(F)(F)C(F)(F)F inactive

So what's the measured outcome for this one? O=C(CBr)Nc1ccc(Cl)cc1C(=O)c1ccccc1F inactive

So what's the measured outcome for this one? Clc1cccc(SC2CCNCC2)n1 inactive

So what's the measured outcome for this one? O=C(NCc1cccnc1)Nc1ccc([N+](=O)[O-])cc1 inactive

# next molecule below
So what's the measured outcome for this one? CC(C)=CCOc1c2occc2cc2ccc(=O)oc12 inactive

---

Assay: A CellTox Green Cytotoxicity Assay to monitor cytotoxicity in HEK293 cells - 8 hour (AID 1224884); further: nearly all actives have a fitted effect of over 35% in size
Conditions: CellTox Green fluorescence; series mostly up to 76.8 µM
Inconclusive results are not listed. Active and inactive are the calls of the source. Calls come from the whole dose curve; as a rule, active = well fitted activation curve with a large enough effect in the repeat runs; inconclusive = weak or mixed curves; inactive = flat fitted curve, though single readings scatter.
Assign a class; possible classes are active, inactive

See these solved cases before continuing.
Given c1ccc(C2CC2)c(OCC2=NCCN2)c1 , state the outcome it received in this test. inactive

Given CCC(Cl)CCl (stereo not given) , state the outcome it received in this test. inactive

Continuing:
Given N#Cc1ccc(Cl)cc1 , state the outcome it received in this test. inactive

Given Clc1cccc(SC2CCNCC2)n1 , state the outcome it received in this test. inactive

Given CCCCCCCCOC(=O)c1ccc(C(=O)OCCCCCCCC)c(C(=O)OCCCCCCCC)c1 , state the outcome it received in this test. inactive

Given C[C@@H]1CC[C@H]2[C@@H](C)C(=O)O[C@@H]3O[C@@]4(C)CC[C@@H]1[C@]32OO4 , state the outcome it received in this test. inactive

Given Cc1ccc2ccccc2c1 , state the outcome it received in this test. inactive

Given Clc1ccc(C(OCCN2CCCCC2)c2ccccc2)cc1 (stereo not given) , state the outcome it received in this test. inactive

Given O=C(O)C1(c2ccc3c(c2)OC[C@H](Cc2ccc(-c4ccccc4)cc2)[C@H]3O)CCCC1 , state the outcome it received in this test. active

Given CC1(C)[C@H](C=C(Cl)Cl)[C@@H]1C(=O)O[C@@H](C#N)c1cccc(Oc2ccccc2)c1 , state the outcome it received in this test. inactive

---

Target: Peroxisome proliferator-activated receptor gamma (Homo sapiens)
Experiment: qHTS assay to identify small molecule antagonists of the peroxisome proliferator-activated receptor gamma (PPARg) signaling pathway (AID 743191); further: nearly all actives have a fitted effect of over 30% in size; further: potency means the concentration at half of the fitted maximal effect
Details: HEK293H PPARg-UAS-bla, beta-lactamase ratio, antagonist, 17 h; series mostly up to 62.6 µM
Results filed as inconclusive are left out. The source made the active and inactive calls. The call rests on the fitted dose curve.
Measurement Name: Potency

Please review the entries below; each comes with its answer.
So what's the measured Potency for this one? CC(C)(OO)c1ccccc1 inactive

So what's the measured Potency for this one? COc1nn(C(=O)NS(=O)(=O)c2ccccc2OC(F)(F)F)c(=O)n1C inactive

So what's the measured Potency for this one? Brc1ccccc1 inactive

So what's the measured Potency for this one? NC(=O)CI inactive

So what's the measured Potency for this one? CN1[C@@H]2CC[C@H]1CC(OC(=O)c1cc(Cl)cc(Cl)c1)C2 (stereo partly drawn) inactive

So what's the measured Potency for this one? CCC(Br)(CC)C(=O)NC(N)=O inactive

Need Potency for each of these compounds.
1. CCOS(C)(=O)=O
2. COc1cc(CC(C)N)cc2c1OCO2 (stereo not drawn)
3. Cc1ccccc1CCl
4. O=[Se]=O
5. COc1cc(Cl)c(OC)cc1Cl
6. CCOP(=O)(OCC)Oc1ccc([N+](=O)[O-])cc1
7. CCOC(=O)CBr

1: inactive; 2: inactive; 3: inactive; 4: inactive; 5: inactive; 6: 22.1 µM (active); 7: inactive
